molecular target: human MC1R (Homo sapiens, UniProt Q01726); construct: expressed in transfected cells; test: Functional cAMP assay (CisBio HTRF) in BHK cells expressing human MC1R; assay type: cell-based
Sequence (Q01726 whole entry): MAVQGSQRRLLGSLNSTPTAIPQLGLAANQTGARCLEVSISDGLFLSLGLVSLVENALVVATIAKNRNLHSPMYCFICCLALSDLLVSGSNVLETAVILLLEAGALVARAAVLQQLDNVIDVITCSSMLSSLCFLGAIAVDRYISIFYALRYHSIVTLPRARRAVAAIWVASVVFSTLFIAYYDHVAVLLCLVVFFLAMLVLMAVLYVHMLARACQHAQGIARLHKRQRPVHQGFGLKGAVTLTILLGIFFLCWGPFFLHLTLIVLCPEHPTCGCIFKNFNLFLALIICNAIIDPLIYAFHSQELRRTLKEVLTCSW
Positions of bridges follow the written chain, without caps; N, C: chain ends. Non-standard residues stand in square brackets, D forms with d. Residues, ends and D or L forms follow the SMILES beside them.
// reported EC50 for each item listed
REPORTED ENDPOINT: EC50 (nM)

[[record]]
compound = "C[C@H]1NC(=O)[C@@H]2CSSC[C@H](NC(=O)[C@H](Cc3c[nH]c4ccccc34)NC(=O)[C@H](CCCNC(=N)N)NC(=O)[C@@H](Cc3ccccc3)NC(=O)[C@H](Cc3c[nH]cn3)NC1=O)C(=O)N[C@H](C)C(=O)N[C@@H](Cc1c[nH]cn1)C(=O)N[C@H](Cc1ccccc1)C(=O)N[C@@H](CCCNC(=N)N)C(=O)N[C@@H](Cc1c[nH]c3ccccc13)C(=O)N2 [Chem. 10]"
measured_value = 4.88

[[record]]
compound = "C[C@@H]1NC(=O)[C@H](C)NC(=O)[C@@H]2CSSC[C@H](NC(=O)[C@H](Cc3c[nH]c4ccccc34)NC(=O)[C@H](C)NC(=O)[C@@H](Cc3ccccc3)NC1=O)C(=O)N[C@@H](C)C(=O)N[C@@H](Cc1c[nH]cn1)C(=O)N[C@H](Cc1ccccc1)C(=O)N[C@@H](CCCNC(=N)N)C(=O)N[C@@H](Cc1c[nH]c3ccccc13)C(=O)N2 [Chem. 11] (cyclo(AA[dF]AWCAH[dF]RWC); disulfide 6-12)"
measured_value = 2.17

[[record]]
compound = "C[C@@H]1NC(=O)[C@H](CCC(=O)O)NC(=O)[C@H](CCC(=O)O)NC(=O)[C@H](C)NC(=O)[C@@H]2CSSC[C@H](NC(=O)[C@H](Cc3c[nH]c4ccccc34)NC1=O)C(=O)N[C@@H](C)C(=O)N[C@@H](Cc1c[nH]cn1)C(=O)N[C@H](Cc1ccccc1)C(=O)N[C@@H](CCCNC(=N)N)C(=O)N[C@@H](Cc1c[nH]c3ccccc13)C(=O)N2 [Chem. 102] (cyclo(AEEAWCAH[dF]RWC); disulfide 6-12)"
measured_value = 14.3


----------
biological target: human MC4R (Homo sapiens); construct: expressed in transfected cells; test: Functional cAMP assay (CisBio HTRF) in BHK cells expressing human MC4R; type: cell-based; details: MC1R cAMP EC50 divided by MC4R cAMP EC50
Positions of bridges follow the written chain, without caps; N, C: chain ends. Non-standard residues stand in square brackets, D forms with d. Residues, ends and D or L forms follow the SMILES beside them. hCit = NC(=O)NCCCC[C@H](N)C(=O)O; Thz = O=C(O)[C@@H]1CSCN1
Form field: MC1R/MC4R cAMP EC50 ratio (one value per entry).
REPORTED ENDPOINT: MC1R/MC4R cAMP EC50 ratio

[[record]]
molecule = "N=C(N)NCCC[C@@H]1NC(=O)[C@H](CCCCN)NC(=O)[C@@H]2CSSC[C@H](NC1=O)C(=O)N1CSC[C@H]1C(=O)N[C@@H](Cc1c[nH]cn1)C(=O)N[C@H](Cc1ccccc1)C(=O)N[C@@H](Cc1c[nH]cn1)C(=O)N[C@@H](Cc1c[nH]c3ccccc13)C(=O)N2 [Chem. 118] (cyclo(CKRC[Thz]H[dF]HW); disulfide 1-4)"
reported_endpoint = "MC1R/MC4R cAMP EC50 ratio"
measured_value = 1240

[[record]]
molecule = "C[C@@H]1NC(=O)[C@@H]2CSSC[C@H](NC(=O)[C@H](CCCNC(=N)N)NC(=O)[C@H](CCCCN)NC(=O)[C@H](CCCCN)NC(=O)[C@H](CCCCN)NC1=O)C(=O)N1CCC[C@H]1C(=O)N[C@@H](Cc1c[nH]cn1)C(=O)N[C@H](Cc1ccccc1)C(=O)N[C@@H](CCCCNC(N)=O)C(=O)N[C@@H](Cc1c[nH]c3ccccc13)C(=O)N2 [Chem. 99] (cyclo(AKKKRCPH[dF][hCit]WC); disulfide 6-12)"
reported_endpoint = "MC1R/MC4R cAMP EC50 ratio"
measured_value = 14

[[record]]
molecule = "CC(C)[C@H]1NC(=O)[C@@H]2CSSC[C@H](NC(=O)[C@H](Cc3c[nH]c4ccccc34)NC(=O)[C@H](CCCNC(=N)N)NC(=O)[C@@H](Cc3ccccc3)NC(=O)[C@H](Cc3c[nH]cn3)NC1=O)C(=O)N[C@H](C(C)C)C(=O)N[C@@H](Cc1c[nH]cn1)C(=O)N[C@H](Cc1ccccc1)C(=O)N[C@@H](CCCNC(=N)N)C(=O)N[C@@H](Cc1c[nH]c3ccccc13)C(=O)N2 [Chem. 34] (cyclo(C[dV]H[dF]RWC[dV]H[dF]RW); disulfide 1-7)"
reported_endpoint = "MC1R/MC4R cAMP EC50 ratio"
measured_value = 22

[[record]]
molecule = "C[C@@H]1NC(=O)[C@H](C)NC(=O)[C@H](Cc2c[nH]c3ccccc23)NC(=O)[C@H](CCCNC(=N)N)NC(=O)[C@@H](Cc2ccccc2)NC(=O)[C@H](Cc2c[nH]cn2)NC(=O)[C@H](C)NC(=O)[C@H](C)NC(=O)[C@H](Cc2c[nH]c3ccccc23)NC(=O)[C@H](CCCNC(=N)N)NC(=O)[C@@H](Cc2ccccc2)NC(=O)[C@H](Cc2c[nH]cn2)NC1=O [Chem. 7] (cyclo(AAH[dF]RWAAH[dF]RW))"
reported_endpoint = "MC1R/MC4R cAMP EC50 ratio"
measured_value = 76

[[record]]
molecule = "C[C@@H]1NC(=O)[C@@H]2CSSC[C@H](NC(=O)[C@H](CCCNC(=N)N)NC(=O)[C@H](CCCCN)NC(=O)[C@H](CCCCN)NC(=O)[C@H](CCCCN)NC1=O)C(=O)N[C@H](C)C(=O)N[C@@H](Cc1c[nH]cn1)C(=O)N[C@H](Cc1ccccc1)C(=O)N[C@@H](CCCNC(=N)N)C(=O)N[C@@H](Cc1c[nH]c3ccccc13)C(=O)N2 [Chem. 85] (cyclo(AKKKRC[dA]H[dF]RWC); disulfide 6-12)"
reported_endpoint = "MC1R/MC4R cAMP EC50 ratio"
measured_value = 22


----------
biological target: human MC4R (Homo sapiens, UniProt P32245); construct: expressed in transfected cells; assay: 125NDP-α-MSH competitive binding to membranes of BHK cells expressing human MC4 receptor (filtration assay); conditions: human MC4R, BHK cell membranes, 125NDP-α-MSH radioligand; read-out: MC4R binding Ki
Sequence (P32245 whole entry): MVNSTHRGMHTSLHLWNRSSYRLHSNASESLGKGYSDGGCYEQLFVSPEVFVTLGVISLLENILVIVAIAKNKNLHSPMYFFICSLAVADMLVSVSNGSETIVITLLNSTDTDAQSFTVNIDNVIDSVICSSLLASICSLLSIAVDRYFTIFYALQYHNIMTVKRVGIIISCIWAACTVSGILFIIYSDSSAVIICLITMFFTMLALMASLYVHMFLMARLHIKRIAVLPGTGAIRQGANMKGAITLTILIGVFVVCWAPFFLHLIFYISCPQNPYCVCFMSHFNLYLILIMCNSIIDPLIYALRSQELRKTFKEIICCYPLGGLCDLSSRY
Positions of bridges follow the written chain, without caps; N, C: chain ends. Non-standard residues stand in square brackets, D forms with d. Residues, ends and D or L forms follow the SMILES beside them. Phe(4-CN) = N#Cc1ccc(C[C@H](N)C(=O)O)cc1; Hyp = O=C(O)[C@@H]1C[C@@H](O)CN1; Cit = NC(=O)NCCC[C@H](N)C(=O)O
REPORTED ENDPOINT: log10 Ki (log10 of the value in nM)

[[record]]
molecule = "N=C(N)NCCC[C@@H]1NC(=O)[C@@H]2CSSC[C@H](NC(=O)[C@H](Cc3c[nH]c4ccccc34)NC(=O)[C@H](CCCNC(N)=O)NC(=O)[C@@H](Cc3ccccc3)NC(=O)[C@H](Cc3c[nH]cn3)NC1=O)C(=O)N[C@@H](CCCNC(=N)N)C(=O)N[C@@H](Cc1c[nH]cn1)C(=O)N[C@H](Cc1ccccc1)C(=O)N[C@@H](CCCNC(N)=O)C(=O)N[C@@H](Cc1c[nH]c3ccccc13)C(=O)N2 [Chem. 54] (cyclo(CRH[dF][Cit]WCRH[dF][Cit]W); disulfide 1-7)"
measured_value = -0.68

[[record]]
molecule = "C[C@@H]1NC(=O)[C@@H]2CSSC[C@H](NC(=O)[C@H](CCCNC(=N)N)NC(=O)[C@H](CCCCN)NC(=O)[C@H](CCCCN)NC(=O)[C@H](CCCCN)NC1=O)C(=O)N[C@H](C)C(=O)N[C@@H](Cc1c[nH]cn1)C(=O)N[C@H](Cc1ccccc1)C(=O)N[C@@H](CCCNC(=N)N)C(=O)N[C@@H](Cc1c[nH]c3ccccc13)C(=O)N2 [Chem. 85] (cyclo(AKKKRC[dA]H[dF]RWC); disulfide 6-12)"
measured_value = -1.70

[[record]]
molecule = "C[C@@H]1NC(=O)[C@@H]2CSSC[C@H](NC(=O)[C@H](Cc3c[nH]c4ccccc34)NC(=O)[C@H](CCCCN)NC(=O)[C@H](CCCCN)NC(=O)[C@H](CCCCN)NC1=O)C(=O)N1CCC[C@@H]1C(=O)N[C@@H](Cc1c[nH]cn1)C(=O)N[C@H](Cc1ccccc1)C(=O)N[C@@H](Cc1c[nH]cn1)C(=O)N[C@@H](Cc1c[nH]c3ccccc13)C(=O)N2 [Chem. 98] (cyclo(AKKKWC[dP]H[dF]HWC); disulfide 6-12)"
measured_value = -0.22

[[record]]
molecule = "C[C@@H]1NC(=O)[C@@H]2CSSC[C@H](NC(=O)[C@H](Cc3ccc(C#N)cc3)NC(=O)[C@H](CCCNC(=N)N)NC(=O)[C@@H](Cc3ccccc3)NC(=O)[C@H](Cc3c[nH]cn3)NC1=O)C(=O)N[C@@H](C)C(=O)N[C@@H](CCCCN)C(=O)N[C@@H](CCCCN)C(=O)N[C@@H](CCCCN)C(=O)N[C@@H](Cc1c[nH]c3ccccc13)C(=O)N2 [Chem. 65] (cyclo(AH[dF]R[Phe(4-CN)]CAKKKWC); disulfide 6-12)"
measured_value = -0.33

[[record]]
molecule = "C[C@@H]1NC(=O)[C@@H]2CSSC[C@H](NC(=O)[C@H](CCCNC(=N)N)NC(=O)[C@H](CCCCN)NC(=O)[C@H](CCCCN)NC(=O)[C@H](CCCCN)NC1=O)C(=O)N1C[C@H](O)C[C@H]1C(=O)N[C@@H](Cc1c[nH]cn1)C(=O)N[C@H](Cc1ccccc1)C(=O)N[C@@H](Cc1c[nH]cn1)C(=O)N[C@@H](Cc1c[nH]c3ccccc13)C(=O)N2 [Chem. 97] (cyclo(AKKKRC[Hyp]H[dF]HWC); disulfide 6-12)"
measured_value = -1.30

